Ki for Dipeptidyl peptidase 2 (Homo sapiens, UniProt Q9UHL4) - collated from the literature.
readout_name: Ki (nM)

1: C[C@H](N)C(=O)N1CCC[C@H]1B(O)O
2: C[C@H](N)C(=S)N1CCSC1
3: N[C@@H](CCNCc1ccc(Cl)cc1)C(=O)N1CCCCC1
4: C[C@H](N)C(=S)N1CCCC1
### Prompt Put the items in sequence by Ki, from largest down. Rank them, then answer with their labels in that order.
### Response 4, 2, 1, 3
(4: 1430 nM, 2: 277 nM, 1: 125 nM, 3: 0.082 nM)
